The following molecules are shown together with reported composite z-score values.
# Test System: Fibroblast growth factor 2 (Homo sapiens)
# Experiment Notes: FGF2 binders on small-molecule microarrays, primary screen, biochemical, small-molecule microarray, 635/667 nm fluorescence (AID 1133)
# Run Conditions: small-molecule microarray binding, FGF2, fluorescence 635/667; higher = more signal

Enter reported composite z-score observed with Fibroblast growth factor 2 (Homo sapiens) for COCCOC(=O)N1C(=O)[C@@]2(c3cc(C#CC4=CCCCC4)ccc31)[C@H](c1ccc(O)cc1)N1[C@H](c3ccccc3)[C@H](c3ccccc3)OC(=O)[C@H]1[C@@H]2C(=O)NC[C@H](O)c1ccccc1
0.685

====

# Test System: Neurogenic locus notch homolog protein 2 (Homo sapiens)
# Experiment Notes: Notch2 binders on small-molecule microarrays, primary screen, biochemical, small-molecule microarray, 635 nm fluorescence, stem cell growth factors (AID 1073)
# Run Conditions: Notch2 binding, higher = more signal
Attribute Measured: composite z-score
Respond using a number only.

Entry COC(=O)C1=CC(CCCO)=CC(C)N(Cc2cccc(OC(F)(F)F)c2)C=C1C(=O)OC (centres undefined) has what composite z-score?
0.412

What do we get for Cc1ccc(S[C@]2(C(=O)NCC(C)C)CC(=O)N(C3Cc4ccccc4C3)[C@@H]2c2ccc(CO)cc2I)cc1 ?
-1.01

What do we get for NCCCCCNC(=O)[C@@H]1C[C@@H]2C(=O)N3CCC[C@H]3C(=O)N2[C@@H]1c1ccc(O)cc1 ?
0.714

What do we get for CCCCCN1CC=CC23O[C@@H]4/C=C\CCC(C)OC(=O)C4[C@H]2C(=O)N(CCCCCCO)[C@@H]3C1=O (some centres undefined) ?
-0.641

====

The following compounds are shown together with reported composite z-score values.
# Experiment Notes: small-molecule binders of probe aLefty1, primary screen, biochemical, small-molecule microarray, 635/667 nm fluorescence (AID 1153);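 note: score merges spot fluorescence with signal-to-noise ratio from the scanned slide images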
# Run Conditions: higher = more signal
Respond using a number only.

See these solved cases before continuing.
Cc1ccc(N2C(=O)c3ccccc3[C@](C)(C(=O)NCc3ccccc3)[C@@H]2c2ccc(CO)cc2)nc1 :: 0.205
CN1C(=O)C2C=CC(C(O)c3ccc(F)cc3)N(NC(=O)OC(C)(C)C)C2C1=O (stereo not given) :: 0.101
Cc1ccc(S[C@]2(C(=O)NC(C)C)CC(=O)N(C(C)C)[C@@H]2c2ccc(CO)cc2I)cc1 :: 0.207
O=c1cccc(-c2ccc(F)cc2)o1 :: 0.0367

In the following, a different compound is considered.
Entry COc1cc(NN2C(C(O)c3ccccc3)C=CC3C(=O)N(C)C(=O)C32)cc(OC)c1OC (stereo not given) has what composite z-score?
0.0455

====

# Experiment Notes: small-molecule binders of probe aInhba, primary screen, biochemical, small-molecule microarray, 635/667 nm fluorescence (AID 1148);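 note: score merges 667nm spot fluorescence with signal-to-noise for antibody binding to printed compounds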
# Run Conditions: higher = more signal
If the reported composite z-score equals or exceeds 0.2, assign 1.0. If not, assign 0.0.

Example entries begin here.
O=C1[C@@]23C=C(Br)[C@H](C[C@@H]2COC3)[C@@]12CO2 :: 0.0
COCCOC(=O)N1C(=O)[C@@]2(c3cc(C#CCNC(N)=O)ccc31)[C@H](c1ccc(O)cc1)N1[C@H](c3ccccc3)[C@H](c3ccccc3)OC(=O)[C@H]1[C@@H]2C(N)=O :: 0.0
COC(=O)C(CC#Cc1ccc2c(c1)[C@]1(C(=O)N2)[C@H](c2ccc(O)cc2)N2[C@H](c3ccccc3)[C@H](c3ccccc3)OC(=O)[C@H]2[C@@H]1C(=O)N1CCCCCCC1)C(=O)OC :: 1.0
COc1ccc([Si](C)(C)[C@H]2[C@H](CC(=O)N3CCC[C@H]3CO)O[C@@]3(C(=O)N(Cc4ccc(N5CCC5=O)cc4)c4ccccc43)[C@@H]2C)cc1 :: 0.0
CO[C@H]1O[C@H](CO)[C@@H](OC(=O)Nc2cccc(F)c2)[C@H](OC(=O)Nc2ccccc2-c2ccccc2)[C@H]1OC(=O)Nc1ccccc1-c1ccccc1 :: 1.0

Check if composite z-score >= 0.2 (inclusive). Item: COc1ccc(NC(=O)O[C@H]2[C@@H]3OC(=O)[C@H](Cc4cccc(Br)c4)C/C=C/C[C@@H](Cc4cccc(Br)c4)C(=O)O[C@H]3[C@@H](OC)O[C@@H]2CO)cc1
1.0
